Assay: qHTS assay to identify small molecule agonists of the vitamin D receptor (VDR) signaling pathway - cell viability counter screen (AID 743224); also: nearly all actives have a fitted effect of over 50% in size
Conditions: VDR-bla HEK293T viability, CellTiter-Glo luminescence, 16 h; series mostly up to 62.6 µM
Results filed as inconclusive are left out. Active and inactive are the calls of the source. Calls follow the shape of the dose curve; as a rule, active = well fitted cell-killing curve with a large enough effect in the repeat runs; inconclusive = weak or mixed curves, or effect the other way; inactive = no such curve, though single readings can be large or run the other way.
Returns: one label drawn from class 1 for active, class 0 for inactive

Solved cases below.
>>> class_label("C=CCc1ccc(OC)cc1")
"class 0"
>>> class_label("Oc1cc(Cl)ccc1Oc1ccc(Cl)cc1Cl")
"class 1"
>>> class_label("CCCCN(CCCC)N=O")
"class 0"
>>> class_label("CCCCC(CC)COC(=O)c1ccc(C(=O)OCC(CC)CCCC)c(C(=O)OCC(CC)CCCC)c1 (centres undefined)")
"class 0"

INPUT: So what was the verdict on `Cc1cccc(N)c1N` in this test?
OUTPUT: class 0

INPUT: So what was the verdict on `O=P(O)(O)CCCl` in this test?
OUTPUT: class 0

INPUT: So what was the verdict on `CCCCCc1cc(O)cc(O)c1` in this test?
OUTPUT: class 0

INPUT: So what was the verdict on `Cc1cc(C)cc(C)c1` in this test?
OUTPUT: class 0

INPUT: So what was the verdict on `Cc1ccc(OP(=O)(Oc2ccc(C)cc2)Oc2ccc(C)cc2)cc1` in this test?
OUTPUT: class 0

INPUT: So what was the verdict on `CCC(C)(c1ccc(O)cc1)c1ccc(O)cc1` in this test?
OUTPUT: class 0

INPUT: So what was the verdict on `CCN(CC)N=O` in this test?
OUTPUT: class 0

INPUT: So what was the verdict on `COC(=O)c1sccc1S(=O)(=O)NC(=O)Nc1nc(C)nc(OC)n1` in this test?
OUTPUT: class 0

INPUT: So what was the verdict on `Nc1ccc(Cl)c(Cl)c1` in this test?
OUTPUT: class 0

INPUT: So what was the verdict on `CCC(C)(C)c1ccc(O)cc1` in this test?
OUTPUT: class 0

INPUT: So what was the verdict on `c1ccc(P(c2ccccc2)c2ccccc2)cc1` in this test?
OUTPUT: class 0

INPUT: So what was the verdict on `N#CC(Br)Br` in this test?
OUTPUT: class 0

INPUT: So what was the verdict on CC(C)=CC1C(C(=O)OCc2coc(Cc3ccccc3)c2)C1(C)C (centres undefined) in this test?
OUTPUT: class 0

INPUT: So what was the verdict on `O=C(CCl)c1ccccc1` in this test?
OUTPUT: class 0

INPUT: So what was the verdict on `O=C(O)C(F)(F)C(F)(F)C(F)(F)C(F)(F)C(F)(F)C(F)(F)C(F)(F)F` in this test?
OUTPUT: class 0
